# Tested target: T1, SNTB1, Q13884
# T1 sequence (Q13884 107-205, limits assumed, looked up): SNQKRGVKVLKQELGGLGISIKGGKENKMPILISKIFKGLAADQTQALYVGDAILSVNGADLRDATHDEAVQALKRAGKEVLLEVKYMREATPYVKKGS
# Experiment summary: holdup assay
# Design: key: below the threshold = too weak to quantify, mostly under pKd 3.1 to 4
# Cond: plain residues with an end cap or a label only (N-terminal biotin on a linker: ado-ado)
So I've got a bunch of binders here, and I need their pKd values.
Give bare numbers.

* NTLNRKTTPV [CACNG8, Q8WXS5] | 4.07
* NVYGIESVKI [GRIA2, P42262] | 3.51
* PPGKHLVTEV [KCNA7, Q96RP8] | 4.32

Can you give me pKd for all of these, one by one?
1. NIAESLESLV [PTPRZ1, P23471]
2. GIKKITSTAL [RPS6KA3, P51812]
3. DTKNYKQTSV [CRIPT, Q9P021]
4. VLYPREGTEV [FOXI1, Q12951]

Result:
4.68
4.23
4.73
3.97
